- System: human melanoma SKMEL28 cells
- protocol-description: MTS cell viability assay, SKMEL28
- Assay type: cell-based
- experimental-conditions: Homo sapiens, SK-MEL-28, Table 5
pIC50: −log10 of the molar value.
quantity-name: pIC50

{"compound": "CC(=O)O[C@H]1C=CC(=O)[C@]2(CO)[C@H]3CC[C@]4(C)[C@@H]([C@H](C)[C@H]5CC(C)=C(C)C(=O)O5)CC[C@H]4[C@@H]3C[C@H]3O[C@]132", "measured-target": "human melanoma SKMEL28 cells", "modifier": "=", "recorded-value": 6.19}
{"compound": "CC1=C(CO)C(=O)O[C@@H]([C@@H](C)[C@H]2CC[C@H]3[C@@H]4CC=C5C=CC(=O)[C@]5(C)[C@H]4CC[C@]23C)C1", "measured-target": "human melanoma SKMEL28 cells", "modifier": "<", "recorded-value": 4.60}
{"compound": "CC(=O)OC[C@]12C(=O)C=C[C@H](OC(C)=O)[C@]13O[C@@H]3C[C@H]1[C@@H]3CC[C@H]([C@H](C)[C@H]4CC(C)=C(C)C(=O)O4)[C@@]3(C)CC[C@@H]12", "measured-target": "human melanoma SKMEL28 cells", "modifier": "=", "recorded-value": 6.57}
{"compound": "CC1=C(C)C(=O)O[C@@H]([C@@H](C)[C@H]2CC[C@H]3[C@@H]4C[C@H]5O[C@]56[C@@H](O)C=CC(=O)[C@]6(CO)[C@H]4CC[C@]23C)C1 [Compound X030B]", "measured-target": "human melanoma SKMEL28 cells", "modifier": "=", "recorded-value": 5.41}
{"compound": "CC1=C(COC2OC(CO)C(O)C(O)C2O)C[C@H]([C@@H](C)[C@H]2CC[C@H]3[C@@H]4CC=C5C[C@@H](O)C[C@H](O)[C@]5(CO)[C@H]4CC[C@]23C)OC1=O (some centres unmarked)", "measured-target": "human melanoma SKMEL28 cells", "modifier": "<", "recorded-value": 4.60}
{"compound": "CC(=O)OC[C@]12C(=O)C=C[C@H](OC(=O)c3ccc(Cl)cc3)[C@]13O[C@@H]3C[C@H]1[C@@H]3CC[C@H]([C@H](C)[C@H]4CC(C)=C(COC(=O)c5ccc(Cl)cc5)C(=O)O4)[C@@]3(C)CC[C@@H]12", "measured-target": "human melanoma SKMEL28 cells", "modifier": "<", "recorded-value": 4.60}
{"compound": "CC(=O)OCC1=C(C)C[C@H]([C@@H](C)[C@H]2CC[C@H]3[C@@H]4C[C@H]5O[C@]56[C@@H](O)C=CC(=O)[C@]6(CO)[C@H]4CC[C@]23C)OC1=O [HFM-JA-336A]", "measured-target": "human melanoma SKMEL28 cells", "modifier": "=", "recorded-value": 6.24}
{"compound": "CC1=C(CO)C(=O)O[C@@](C)([C@@H](C)[C@H]2CC[C@H]3[C@@H]4CC=C5C[C@@H](OC6OC(CO)C(O)C(O)C6O)CC(=O)[C@]5(CO)[C@H]4CC[C@]23C)C1 (some centres unmarked)", "measured-target": "human melanoma SKMEL28 cells", "modifier": "<", "recorded-value": 4.60}
{"compound": "CC1=C(COC2OC(CO)C(OC3OC(C)C(O)C(O)C3O)C(O)C2O)C(=O)O[C@@H]([C@@H](C)[C@H]2CC[C@H]3[C@@H]4C[C@H]5O[C@]56[C@@H](O)C=CC(=O)[C@]6(C)[C@H]4CC[C@]23C)C1 (some centres unmarked)", "measured-target": "human melanoma SKMEL28 cells", "modifier": "=", "recorded-value": 4.76}
{"compound": "CC1=C(COC2OC(CO)C(O)C(O)C2O)C[C@H]([C@@H](C)[C@H]2CC[C@H]3[C@@H]4CC(=O)C5=C(CC[C@@H](O)C5)[C@H]4CC[C@]23C)OC1=O (some centres unmarked)", "measured-target": "human melanoma SKMEL28 cells", "modifier": "<", "recorded-value": 4.60}
{"compound": "CC(=O)O[C@H]1C=CC(=O)[C@]2(CO)[C@H]3CC[C@]4(C)[C@@H]([C@H](C)[C@H]5CC(C)=C(CO)C(=O)O5)CC[C@H]4[C@@H]3C[C@H]3O[C@]132 [HFM-JA-336C]", "measured-target": "human melanoma SKMEL28 cells", "modifier": "=", "recorded-value": 6.24}
